- assayNotes: Pharmacokinetics in ICR mice after intravenous and intragastric administration
- Type: in vivo
- statedConditions: male, ICR, mouse, plasma, iv, 2 mg/kg, ICR mice, IV 2 mg/kg, individual animal; read-out: Vz
Measured Vd accompanies every entry in the list below.

>  <compound>
COc1cc(C2CC2)ncc1-c1nc2c(n1C(C)C)[C@@]1(C(=O)Nc3cc(Cl)ccc31)N(c1cc(Cl)ccc1C)C2=O [Example S-103]

>  <unitString>
L/kg

>  <Vd>
0.79

$$$$
>  <compound>
COc1cc(C(C)C)ccc1-c1nc2c(n1C(C)C)[C@@]1(C(=O)Nc3cc(Cl)ccc31)N(c1cc(Cl)ccc1C)C2=O [Example S-32]

>  <unitString>
L/kg

>  <Vd>
0.543

$$$$
>  <compound>
COc1ccc(-c2nc3c(n2C(C)C)[C@@]2(C(=O)Nc4cc(Cl)ccc42)N(c2cc(Cl)cnc2C)C3=O)c(OC)c1 [Example S-61]

>  <unitString>
L/kg

>  <Vd>
0.8

$$$$

Reference source: patent US11339171B2
